- Target desc: EGFR T790M/L858R (NCI-H1975 cells) (Homo sapiens, UniProt P00533, L858R/T790M)
- Construct: NCI-H1975 (harboring EGFR heterozygous T790M/L858R mutations); host or cells: NCI-H1975
- Sequence (P00533 25-1210 T790M/L858R): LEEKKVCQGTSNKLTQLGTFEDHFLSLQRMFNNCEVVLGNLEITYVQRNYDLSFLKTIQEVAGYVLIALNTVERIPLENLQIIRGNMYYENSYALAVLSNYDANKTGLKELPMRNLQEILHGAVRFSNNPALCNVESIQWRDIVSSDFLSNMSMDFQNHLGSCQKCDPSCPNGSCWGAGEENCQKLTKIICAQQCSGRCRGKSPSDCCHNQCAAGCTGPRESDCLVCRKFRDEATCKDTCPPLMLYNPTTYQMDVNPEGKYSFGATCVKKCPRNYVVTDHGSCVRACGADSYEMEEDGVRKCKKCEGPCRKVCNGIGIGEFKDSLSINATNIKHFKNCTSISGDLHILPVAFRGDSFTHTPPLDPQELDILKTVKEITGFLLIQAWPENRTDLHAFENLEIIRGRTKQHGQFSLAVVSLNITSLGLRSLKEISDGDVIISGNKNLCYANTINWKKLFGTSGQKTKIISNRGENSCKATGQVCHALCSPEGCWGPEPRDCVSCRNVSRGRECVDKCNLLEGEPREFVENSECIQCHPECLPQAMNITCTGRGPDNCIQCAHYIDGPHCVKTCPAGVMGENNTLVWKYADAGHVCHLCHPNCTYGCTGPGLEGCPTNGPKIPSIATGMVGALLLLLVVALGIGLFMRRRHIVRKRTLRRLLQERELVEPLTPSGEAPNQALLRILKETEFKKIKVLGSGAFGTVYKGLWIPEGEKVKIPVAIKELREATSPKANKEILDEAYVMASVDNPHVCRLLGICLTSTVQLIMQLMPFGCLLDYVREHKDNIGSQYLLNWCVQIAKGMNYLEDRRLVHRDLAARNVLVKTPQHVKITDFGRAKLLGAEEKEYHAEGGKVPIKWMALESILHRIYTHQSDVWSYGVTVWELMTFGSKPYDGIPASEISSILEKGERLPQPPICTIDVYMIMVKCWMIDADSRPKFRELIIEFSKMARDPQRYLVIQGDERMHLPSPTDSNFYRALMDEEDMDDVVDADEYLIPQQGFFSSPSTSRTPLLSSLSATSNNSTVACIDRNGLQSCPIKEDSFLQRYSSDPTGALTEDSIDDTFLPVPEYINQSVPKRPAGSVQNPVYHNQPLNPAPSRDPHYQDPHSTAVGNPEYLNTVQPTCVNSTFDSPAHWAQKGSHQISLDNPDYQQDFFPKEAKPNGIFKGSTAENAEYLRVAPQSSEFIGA
- Assay explanation: EGFR (L858R) degradation analysis, Total EGFR (L858R) HTRF, NCI-H1975 cells
- Type: cell-based
- Conditions used: 6 hours
List of DC50 values.

{"Molecule": "Cn1nc(N2CCC(=O)NC2=O)c2ccc(C3CCN(CC(=O)N4CC5(C4)CN(c4ccc(-c6cc(F)c7c(c6)C(=O)N(C(C(=O)Nc6ccccn6)c6ncn8c6CCC8)C7)cc4)C5)CC3)cc21 (centres unmarked)", "Target desc": "EGFR T790M/L858R (NCI-H1975 cells) (Homo sapiens, UniProt P00533, L858R/T790M)", "Scale unit": "nM", "DC50": 16}
{"Molecule": "O=C1CC[C@H](Nc2ccc(C3CCN(CC(=O)N4CCN(c5ccc(-c6cc(F)c7c(c6)C(=O)N(C(C(=O)Nc6nccs6)c6ncn8c6C[C@@H](F)C8)C7)cc5)CC4)CC3)c(F)c2)C(=O)N1 (some centres unmarked)", "Target desc": "EGFR T790M/L858R (NCI-H1975 cells) (Homo sapiens, UniProt P00533, L858R/T790M)", "Scale unit": "nM", "DC50": 22}
{"Molecule": "O=C1CC[C@H](Nc2ccc(C3CCN(CC(=O)N4CCC(c5cnn(-c6cc(F)c7c(c6)C(=O)N(C(C(=O)Nc6nccs6)c6ncn8c6CCC8)C7)c5)CC4)CC3)cc2)C(=O)N1 (some centres unmarked)", "Target desc": "EGFR T790M/L858R (NCI-H1975 cells) (Homo sapiens, UniProt P00533, L858R/T790M)", "Scale unit": "nM", "DC50": 24}
{"Molecule": "O=C1CCC(Nc2ccc(C3CCN(CC(=O)N4CCN(c5ccc(-c6cc(F)c7c(c6)C(=O)N(C(C(=O)Nc6nccs6)c6ncn8c6CCC8)C7)cc5)CC4)CC3)c(C(F)F)c2)C(=O)N1 (centres unmarked)", "Target desc": "EGFR T790M/L858R (NCI-H1975 cells) (Homo sapiens, UniProt P00533, L858R/T790M)", "Scale unit": "nM", "DC50": 34}
{"Molecule": "O=C1CCC(Nc2ccc(C3CCN(C(=O)CN4CCC(c5ccc(-c6cc(F)c7c(c6)C(=O)N(C(C(=O)Nc6nccs6)c6ncn8c6CCC8)C7)cc5)CC4)CC3)cc2)C(=O)N1 (centres unmarked)", "Target desc": "EGFR T790M/L858R (NCI-H1975 cells) (Homo sapiens, UniProt P00533, L858R/T790M)", "Scale unit": "nM", "DC50": 26}
